testName: reduction of polyQ htt aggregates in cells – imaging, exon1htt(103Q)mCFP cells, high-content imaging, primary screen (AID 483);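 also: compound exposure lasted 3 days before fixation; percent of the per-plate median nuclei count of sample wells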
reportedConditions: exon1htt(103Q)mCFP cell line, aggregate imaging, at 2 µM; measured here: cell count, toxicity

molecule	nuclei count (%)
CCCCN(CC)S(=O)(=O)c1ccc2c(c1)CCCN2C(C)=O	111
O=C1C2C3C=CC(C3)C2C(=O)N1CNc1ccc(O)cc1 (stereo unspecified)	108
O=C(NCC(=O)N(c1cccnc1)C(C(=O)NC1CCCCC1)c1cccnc1)c1ccco1 (stereo unspecified)	109
O=C(NCc1cccs1)C1CC(c2ccccc2O)=NO1 (stereo unspecified)	104
COCC(C)NC(=O)CCS(=O)(=O)c1nc(-c2ccc(OC)cc2)cc(C(F)(F)F)n1 (stereo unspecified)	96.3
Cn1c(C(=O)NCCCN2CCN(c3ccc(F)cc3)CC2)cc2c(=O)n(C)c3ccccc3c21	107
CCOC(=O)N1CCC(NC(=O)c2ccc3c(c2)N(CC)CCS3)CC1	70.3
COc1ccc(C(=O)N2CCN(C3CCCCC3)CC2)c(OC)c1	83.3
COc1ccc2c(c1)Sc1ccccc1N2CCN(C)C	117
Cc1nnc(N(C)C(=O)c2cccnc2)s1	109
CCN(CC(=O)Nc1ccc2c(c1)CCC2)Cc1nc2ccccc2c(=O)[nH]1	102

* * *

testName: blockers of RIG-like receptor reporter activation – cell-based, Sendai virus stimulus, luciferase, 10K MLSCN set, TLR/RLR signaling modifier project, primary screen (AID 602276);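 also: firefly luciferase from ISG56 promoter only with Renilla not read in this screen; 0% = Sendai virus plus DMSO and 100% = medium plus DMSO without virus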
reportedConditions: HEK293 RL24 IRF3 luciferase reporter, at 10 µM, stronger effect = higher value
readoutName: inhibition (%)

molecule	observed
COC(=O)c1ccccc1S(=O)(=O)N(CCCO)Cc1cc2c(C)ccc(C)c2[nH]c1=O	2.69
CC1Cc2ccccc2N1C(=O)CSc1nc2ccccc2n1CC(=O)N1CCOCC1 (stereo not drawn)	15.4
Cc1ccc(CN2C(=O)CCC2C(=O)NCC2CCCO2)cc1 (stereo not drawn)	-7.7
CN(C)C(CNC(=O)Nc1cccc(Cl)c1)c1cccnc1 (stereo not drawn)	18.9
COc1ccc(-n2cnnc2SCCC#N)cc1	6.27
CN1CCc2c(sc3c2C(=O)NC(c2cccc(OC(=O)c4cccs4)c2)N3)C1 (stereo not drawn)	-5.69
O=C(CN(Cc1cccs1)C(=O)CNS(=O)(=O)c1ccccc1)NCc1ccco1	-8.34
Cc1csc(NC(=O)Nc2cccc(Cl)c2)n1	-37.7
COc1cccc(-n2c(CNc3ccc(F)cc3)nnc2SCC(N)=O)c1	15.9
Cc1ccc(-n2nc(C(=O)N3CCN(C)CC3)c3c4ccccc4n(C)c3c2=O)cc1	19.7
CCOC(=O)c1sc2nc(SCC#N)n(CCCN3CCCC3=O)c(=O)c2c1C	4.69
CC1(C)C2CCC1(C)C(OC(=O)CSc1nc(N)cc(=O)[nH]1)C2 (stereo not drawn)	3.84
CCn1c(CCC(=O)Nc2nc3c(s2)CCCC3)nc2cc(S(=O)(=O)N(C)C)ccc21	14.6
CC(C)(C)NC(=O)Cn1nnnc1-c1nonc1N	-5.7
O=c1cc(CSc2nnnn2-c2ccccc2)nc2scc(-c3ccccc3)n12	1.29
COc1cc(-c2nc(S(=O)(=O)c3ccccc3)c(N3CCOCC3)o2)cc(OC)c1OC	14.4
COc1ccccc1NC1=C(C)C(=O)CC1	19.4
CCCN1Cc2cccc(C(=O)NC3CCCC3)c2C1=O	11.8
CCCc1cc(Nc2cccc(OC)c2)n2ncnc2n1	12.1
CCc1c(C(=O)Nc2cc(C)ccc2OC)[nH]c(C)c1C(C)=O	23.1
Cc1ccc2c(c1)c1c3n2CC(=C2C(=O)OC(C)(C)OC2=O)NC3CCC1 (stereo not drawn)	16.6
Cc1cc(=O)[nH]c(SCC(=O)NCc2ccco2)n1	18.4
Cc1ccc2nc(C3CCN(CC(=O)N4CCCCCC4)CC3)[nH]c2c1	8.23

* * *

testName: endothelial E-selectin expression blockers – imaging, HUVEC, immunofluorescence, MLSMR starter and 10KST1 sets, primary screen (AID 487);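 also: signal is fraction of cell area covered by stained E-selectin grains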
reportedConditions: HUVEC TNFalpha-induced E-selectin immunofluorescence imaging, at 2 µM; stronger effect = higher value
Criterion: inhibition meeting or surpassing -30%. Met: Satisfied. Not met: Not satisfied.

compound	classLabel
O=C(CN1CCSCC1)N1CCc2[nH]c3ccc(Br)cc3c2C1	Satisfied
COc1cc2c(cc1OC)C(c1ccccc1O)N(C1CC(=O)N(c3ccccc3)C1=O)CC2 (stereo unspecified)	Satisfied
CCn1c(SCC(=O)Nc2ccccc2F)nc2c(c1=O)SC(C)C2 (stereo unspecified)	Satisfied
Cn1nc(-c2ccc(N3CCCCC3)c(NC(=O)c3ccco3)c2)c2ccccc2c1=O	Satisfied
CCOC(=O)N1CCN(Cc2nc3c(c(=O)[nH]c(=O)n3C)n2Cc2cc(C)ccc2C)CC1	Not satisfied
CCOC(=O)N1CCN(C(=O)c2cnn(-c3ccccc3)c2NC(=O)c2ccccc2F)CC1	Not satisfied
CC(C)OC(=O)CSc1nnc(-c2ccco2)n1N	Satisfied
COc1ccc(CC(=O)Nc2cc(Cl)ccc2O)cc1	Not satisfied
CC(=O)N1C(=O)C2(C(C#N)=C(N)Oc3cc(C)oc(=O)c32)c2ccccc21 (stereo unspecified)	Not satisfied
NS(=O)(=O)c1ccc(CCNC(=O)CCC2COc3ccccc3O2)cc1 (stereo unspecified)	Satisfied
O=C(O)c1ccc(NC(=O)c2cccs2)cc1	Not satisfied
CCCCNS(=O)(=O)c1ccc(OC)c2ncccc12	Satisfied
COC(=O)c1cccc(NC(=O)C2COc3ccccc3O2)c1C (stereo unspecified)	Satisfied
O=c1[nH]c2cc3c(cc2cc1C(c1nnnn1C1CCCCC1)N1CCSCC1)OCCO3 (stereo unspecified)	Satisfied
c1ccc(-c2cc(-c3nc(-c4ccccn4)no3)c3ccccc3n2)cc1	Not satisfied
CCOC(=O)C1=C(CC)Nc2ccccc2N=C1NC(=O)Cn1cnc2ccccc2c1=O	Satisfied
CCCn1c(SCC(=O)N2CCCc3ccccc32)nnc1-c1ccccn1	Satisfied
O=C(CN1C(=O)c2ccccc2C1=O)Nc1ccc(S(=O)(=O)NCC2CCCO2)cc1 (stereo unspecified)	Not satisfied
CCSC1=NCN(CCCC(=O)O)CN1	Not satisfied
O=C(Cn1nc(Cc2cccnc2)c2ccccc2c1=O)Nc1ccc2c(c1)OCO2	Satisfied
O=C(CC(Cc1ccccc1)C(=O)O)NCCc1ccc2c(c1)OCO2 (stereo unspecified)	Not satisfied
Cc1onc(-c2ccccc2)c1C(N)=O	Not satisfied
CC(CN1CCCCC1)OC(=O)c1ccc2c(c1)OCO2 (stereo unspecified)	Not satisfied
Cc1cc(=O)n(CC(C)C)c(O)c1C#N	Satisfied
COc1ccc(-n2c(N)c(C(=O)NCc3ccco3)c3nc4ccccc4nc32)c(OC)c1	Satisfied
Cc1ccccc1CN1CCN(C(=O)c2cccc(F)c2)CC1	Satisfied
Cc1csc(NC(=O)c2ccccc2C(=O)O)n1	Not satisfied
COCCN(C(=O)Cn1nnc2ccccc21)C(C(=O)NC1CCCC1)c1cc(OC)ccc1OC (stereo unspecified)	Not satisfied
CCn1c(SCC(=O)NCc2ccco2)nc2c(c1=O)SC(C)C2 (stereo unspecified)	Satisfied
COCCNC(=O)CCCCCN1C(=O)CCC1=O	Satisfied
CC1=C(C)C(=O)NC(Nc2nc(C)c3cc(C)cc(C)c3n2)N1 (stereo unspecified)	Satisfied
CCOc1ccccc1C(=O)NCCC(=O)O	Satisfied
Cc1nc2nc(-c3cccnc3)nn2c(C)c1Cl	Not satisfied
CCCCSc1nc2c(cnn2-c2ccc(Cl)cc2)c(=O)[nH]1	Satisfied
O=C(O)c1cccc(NC(=O)C2C3C=CC(C3)C2C(=O)OCC(F)(F)C(F)F)c1 (stereo unspecified)	Not satisfied
c1ccc2c(c1)nc(-c1ccncc1)n1nnnc21	Not satisfied
COc1ccc(S(=O)(=O)NCC(c2cccnc2)N2CCN(C)CC2)cc1C (stereo unspecified)	Satisfied
COCCCNC(=O)c1ccc(CS(=O)(=O)c2ccc(OC)cc2)o1	Not satisfied
Cc1ccc(N2CC(C(=O)Nc3nnc(C)s3)CC2=O)cc1 (stereo unspecified)	Satisfied
Cc1ccc2cc(C(c3nnnn3C3CCCC3)N3CCN(c4ccc(F)cc4)CC3)c(=O)[nH]c2c1 (stereo unspecified)	Not satisfied
CC(=O)NCCc1ccc(S(=O)(=O)NCc2ccc3c(c2)OCO3)cc1	Satisfied
COc1ccc(Cl)cc1N1CCN(CCNC(=O)Nc2ccccc2C)CC1	Satisfied
COc1cc(C)c(Br)cc1S(=O)(=O)N1CCOCC1	Not satisfied
COCCCNC(=O)CCCn1c(=O)c2ccccc2n(CC(=O)Nc2c(C)cccc2C)c1=O	Not satisfied
CCn1c(CCC(=O)Nc2nc3c(s2)CCCC3)nc2cc(S(=O)(=O)N(C)C)ccc21	Not satisfied
CSc1ccc(-c2cc(=O)c3ccccc3o2)cc1	Not satisfied

* * *

measurementTarget: Voltage-gated potassium channel subunit beta-2 (Rattus norvegicus)
testName: inhibitors of rat Kvbeta2 reductase activity – biochemical, NADPH fluorescence, primary screen (AID 622);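 also: slope of raw intensity against log time taken from 70 to 1610 s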
reportedConditions: recombinant KvBeta, 4-cyanobenzaldehyde reduction, at 10 µM, stronger effect = higher value
Each entry gets false if its fluorescence slope stays under -0.4, and true if its fluorescence slope is -0.4 or above.

compound	classLabel
COc1ccc2c(c1)Sc1ccccc1N2CCN(C)C	false
CCCOc1ccc(/C(O)=C2/C(=O)C(=O)N(CCCOC)C2c2ccncc2)cc1 (stereo not drawn)	true
Cn1nnnc1SCC(=O)N1CCN(c2ccccc2)CC1	true
CC1=C(C(=O)OC(C)C)C(c2cccc(F)c2)n2ncnc2N1 (stereo not drawn)	false
Cn1c(=O)c2ccccc2n(Cc2ccccc2F)c1=O	false
O=C(C1CC2CCC1C2)N1CCN(Cc2ccc3c(c2)OCO3)CC1 (stereo not drawn)	false
NCC(O)COc1ccc2c(c1)OCO2 (stereo not drawn)	false
O=C(CSc1nc(-c2ccco2)cc(C(F)(F)F)n1)N1CCCc2ccccc21	false
CCCCCn1c(CN(C)Cc2ccccc2)nc2c1c(=O)n(C)c(=O)n2C	false
CCOC(=O)CSc1nc2cc(C(=O)N3CCC(C(N)=O)CC3)ccc2c(=O)n1-c1ccccc1	true
CCn1cc(C(=O)NCCC2=CCCCC2)c(=O)c2cc(S(=O)(=O)N(C)C)ccc21	false
Cc1ccc2c(c1)NC(=O)C(CC(=O)NCCCN1CCN(c3cc(Cl)ccc3C)CC1)O2 (stereo not drawn)	false
O=C(Nc1ccc(-c2nc3ncccc3o2)cc1)c1ccc(Br)o1	true
Cc1cccc(NC(=O)c2ccc(S(=O)(=O)N(C)C)cc2)n1	true
CN=C(C)C1=C(O)C(C(=O)OC)C(C)(C)CC1=O (stereo not drawn)	false
CCCCOc1ccccc1NC(=O)c1ccco1	false
CCOC(=O)n1c(=O)oc2cc(S(=O)(=O)N3CCCCC3)ccc21	true
Cc1ccccc1NC(=O)C1CCCN(S(=O)(=O)c2cccc3cccnc23)C1 (stereo not drawn)	false
COc1ccc(CC(=O)OCC(=O)NC(=O)NC2CCCCC2)cc1	false
Cc1c(C(=O)NCc2cccnc2)sc2ncn(CC(=O)N3CCCCC3C)c(=O)c12 (stereo not drawn)	false
